Sourced from ChEMBL document CHEMBL1126700

test: Partition coefficient (logD7.4); conditions: octanol/water, pH 7.4
Listing: logD of selected compounds
// keep it numeric: no unit symbol after the value

These solved cases illustrate the format of a correct answer.
The recorded logD for entry "Cc1noc(-c2ccc3[nH]cc(CCN)c3c2)n1" equals -0.37

The recorded logD for entry "CNS(=O)(=O)c1ccc(Cc2noc(-c3ccc4[nH]cc(CCN)c4c3)n2)cc1" equals 0.25

Shifting focus to the compound that follows.
The recorded logD for entry "CN(C)CCc1c[nH]c2ccc(-c3nc(N)no3)cc12" equals 0.2

----------
assay: Partition coefficient (logD7.4); conditions: octanol/water, pH 7.4
# note: boundary value 0.5 maps to not met; logD below it maps to met

Solved entries:
Incoming: Strictly below 0.5 in logD? "NCCc1c[nH]c2ccc(-c3nc(Cc4ccccc4)no3)cc12"
Outgoing: not met

Incoming: Strictly below 0.5 in logD? "NCCc1c[nH]c2ccc(Cc3nc(Cc4ccccc4)no3)cc12"
Outgoing: met

Incoming: Strictly below 0.5 in logD? "CNS(=O)(=O)Cc1ccc2[nH]cc(CCN(C)C)c2c1"
Outgoing: met

Incoming: Strictly below 0.5 in logD? "CS(=O)(=O)Nc1ccc(Cc2noc(Cc3ccc4[nH]cc(CCN)c4c3)n2)cc1"
Outgoing: met

Incoming: Strictly below 0.5 in logD? "CS(=O)(=O)Nc1ccc(Cc2noc(-c3ccc4[nH]cc(CCN)c4c3)n2)cc1"
Outgoing: met

Now examine the next entry.
Incoming: Strictly below 0.5 in logD? "COc1ccccc1Cc1noc(-c2ccc3[nH]cc(CCN)c3c2)n1"
Outgoing: not met
